test: Human HepG2 cell viability assay in 384 well format; format: toxicity, cell-based; design: dose 125 nL, time 70.5 hour; concentration not given beside the values; conditions: HepG2 cells, read-out: Inhibition
MEASURED PARAMETER: cytotoxicity at 70.5 h (%)
One number for each entry, in %.

Consider the reported cytotoxicity at 70.5 h for these molecules:
{"MOLECULE": "CC(=O)N(c1ccc(C)cc1)c1nc(CN2CCCC(C)C2)cs1 (stereo unspecified)", "DATA VALUE": 12.3}
{"MOLECULE": "CCC(=O)N1CCCC(c2ncc3c(n2)CCN(C)C3)C1 (stereo unspecified)", "DATA VALUE": -8.89}
{"MOLECULE": "Cc1nc2c(c(N(C)C)n1)CCN(C(=O)CN1CCC(O)CC1)C2", "DATA VALUE": -6.35}
{"MOLECULE": "COc1ccccc1OCC(=O)N1CCC[C@]2(C[C@@H](OC)CO2)C1", "DATA VALUE": 10.6}
{"MOLECULE": "COc1ccc(C(C(=O)O)N2CCN(C3CCCC3)CC2)cc1OC (stereo unspecified)", "DATA VALUE": 12.5}
{"MOLECULE": "O=C1CCCN1CCCNCc1cc(O)c2cccc(F)c2n1", "DATA VALUE": -3.49}
{"MOLECULE": "Cn1cc(N2CC3(CCN(S(=O)(=O)C4CC4)C3)CC2=O)cn1 (stereo unspecified)", "DATA VALUE": -1.83}
{"MOLECULE": "CCC(C(=O)NC1CCCCC1)n1cccc(OC)c1=O (stereo unspecified)", "DATA VALUE": -1.81}

For every record below, what is its cytotoxicity at 70.5 h?
1. CCc1csc(CNc2cc(C)nc(-c3cccnc3)n2)n1
2. Cc1occc1CNC(=O)Nc1ccc2nc(N3CCOCC3)oc2c1
3. Cc1nnc([C@H]2C[C@H]3OCC[C@H]3N(S(=O)(=O)C3CC3)C2)o1

a:
1: -7.79; 2: -9.42; 3: 5.23

----------
Give cytotoxicity at 70.5 h for every item shown.
experiment: Human HepG2 cell viability assay in 384 well format; assay type: toxicity, cell-based; parameters: dose 125 nL, time 70.5 hour; concentration not given beside the values; details: HepG2 cells, read-out: Inhibition
Please don't drop the unit; write it after the number.

I'm hoping you can list cytotoxicity at 70.5 h for every compound here, please.
1. CC(C)c1nnc(CN2CC(n3cccn3)C2)o1
2. Cc1cccc(CN2CCCC3(CCC(=O)N3CCN(C)C)CC2)n1 (stereo unspecified)
3. Fc1cccc2ncnc(NCC3(N4CCOCC4)CCSC3)c12 (stereo unspecified)
4. Cc1ocnc1C(=O)N1CCCN(Cc2cscn2)CC1
5. O=C1CCc2cc(-c3csc(CCN4CCOC4=O)n3)c(F)cc2N1
6. O=C(c1cccc(-c2ccc(F)cc2)c1)N1CCCC(O)(CO)CC1 (stereo unspecified)

a:
1. -6.56%
2. -3.65%
3. 3.01%
4. 21.9%
5. 24.3%
6. 9.52%

----------
assay: Human HepG2 cell viability assay in 384 well format; format: toxicity, cell-based; parameters: dose 125 nL, time 70.5 hour; concentration not given beside the values; conditions: HepG2 cells, read-out: Inhibition
MEASURED PARAMETER: cytotoxicity at 70.5 h (%)
Give bare numbers, in %.

Please review the entries below; each comes with its answer.
{"COMPOUND": "CCN(Cc1nc2c(cnn2C)c(=O)[nH]1)c1cc(C)ccc1C", "cytotoxicity at 70.5 h / %": -15.9}
{"COMPOUND": "CCN1CCN(C[C@@H]2CN(c3ncc(Cl)cc3Cl)C[C@@H]2CO)CC1", "cytotoxicity at 70.5 h / %": -6.63}
{"COMPOUND": "Cc1noc(C)c1CN1CC[C@H]2OCC[C@@H](C(=O)NCC3CC3)[C@H]2C1", "cytotoxicity at 70.5 h / %": -8.02}
{"COMPOUND": "CCS(=O)(=O)NCCNC(=O)N(Cc1ccc(C)o1)C(C)C", "cytotoxicity at 70.5 h / %": -13.2}
{"COMPOUND": "NC(=O)CN1CCCC1c1cncc(Oc2ccc(Cl)cc2)n1 (configuration not stated)", "cytotoxicity at 70.5 h / %": -4.42}

Hi team, please reply with cytotoxicity at 70.5 h for each item in this list.
1. CNC(=O)C1Cn2ccnc2C2(CCN(Cc3cccc(C)n3)CC2)O1 (configuration not stated)
2. COc1ccc(OC)c(CN2CCc3nc4ccsc4c(=O)n3CC2)c1
3. O=C1CC2(CCN(S(=O)(=O)c3cccs3)C2)CN1c1ccccc1 (configuration not stated)
4. O=C(CCc1ccco1)N1CCC(Oc2ccccc2)(C(=O)O)CC1
5. COc1ccc(-c2ccc(C3CNCCO3)nc2)cc1 (configuration not stated)
6. CC(NC(=O)N(C)Cc1cccc(OC(F)F)c1)c1nncn1C (configuration not stated)

a:
1. 0.339
2. 38.7
3. -9.28
4. 2.91
5. -5.61
6. -5.84

----------
experiment: Human HepG2 cell viability assay in 384 well format; assay type: toxicity, cell-based; design: dose 125 nL, time 70.5 hour; concentration not given beside the values; settings: HepG2 cells, read-out: Inhibition
MEASURED PARAMETER: cytotoxicity at 70.5 h (%)
Numbers only, in %.

{"MOLECULE": "O=C(c1cccc(F)c1)N(CCCO)S(=O)(=O)c1cccs1", "cytotoxicity at 70.5 h, %": -8.04}
{"MOLECULE": "CCN1CCN(S(=O)(=O)N2CCCC2)[C@H]2CS(=O)(=O)C[C@H]21", "cytotoxicity at 70.5 h, %": -3.04}
{"MOLECULE": "COCCN1CCC(c2nc3ccc(N4CCCC4)cn3n2)CC1", "cytotoxicity at 70.5 h, %": -8.32}
{"MOLECULE": "CCOCC(O)CN1CCN(C(=O)c2cccnc2OC)CC1 (stereo unspecified)", "cytotoxicity at 70.5 h, %": -18}
{"MOLECULE": "COc1cc(N2CCCC(CO)(Cc3ccccc3F)C2)ncn1 (stereo unspecified)", "cytotoxicity at 70.5 h, %": 50.5}

Now for another entry.
q: Quick one: cytotoxicity at 70.5 h for `Cc1ccc(N2CCN(C(=O)COc3ncccn3)CC2)nn1` ?
a: -7.37

----------
test: Human HepG2 cell viability assay in 384 well format; type: toxicity, cell-based; set-up: dose 125 nL, time 70.5 hour; concentration not given beside the values; details: HepG2 cells, read-out: Inhibition
MEASURED PARAMETER: cytotoxicity at 70.5 h (%)
One number for each entry, in %.

Examples with answers:
{"MOLECULE": "CC1CCN(C(=O)[C@@H]2C[C@H]3OCC[C@H]3N(Cc3ccoc3)C2)CC1", "cytotoxicity at 70.5 h [%]": -2.6}
{"MOLECULE": "Cc1ccc(C(=O)N2C[C@H](N3CCOCC3)[C@@H]3OCCC[C@@H]32)cn1", "cytotoxicity at 70.5 h [%]": -9.11}
{"MOLECULE": "Cc1nc(CN2CCCC(CCNS(C)(=O)=O)C2)c[nH]1 (configuration not stated)", "cytotoxicity at 70.5 h [%]": -11.3}
{"MOLECULE": "CN(C)c1ccc(CNC(=O)NCCc2cccs2)cn1", "cytotoxicity at 70.5 h [%]": -12.3}
{"MOLECULE": "COCCN1CCCN(C(=O)c2oc(C)nc2C)CC1", "cytotoxicity at 70.5 h [%]": -7.73}
{"MOLECULE": "Cc1nc[nH]c1-c1c(-c2ccccc2)ncn1C1CCNC1 (configuration not stated)", "cytotoxicity at 70.5 h [%]": -1.75}
{"MOLECULE": "CCOC1CC2(CCN(C(C)=O)CC2)c2cc(F)ccc21 (configuration not stated)", "cytotoxicity at 70.5 h [%]": -3.98}
{"MOLECULE": "Cc1csc2ncnc(N3CCC(Cn4cc(C(C)(C)O)nn4)CC3)c12", "cytotoxicity at 70.5 h [%]": 5.18}

Batch: cytotoxicity at 70.5 h for all items listed.
1. Cc1noc(C)c1C(=O)Nc1ccc2ncn(CC(C)C)c(=O)c2c1
2. CC(C)NS(=O)(=O)c1cc(C(=O)O)cc(-c2ccccc2C#N)c1
3. CN(C)C(=O)c1ccc(C2CCCN2C(=O)c2ccccc2N(C)C)s1 (configuration not stated)
4. N#CCCN(CC1CCCO1)C(=O)c1ccc(C#N)cc1 (configuration not stated)
5. COc1ccc(CN(Cc2cncn2C)CC2CCCO2)c(OC)c1 (configuration not stated)

a:
[50.5, 6.18, -1.33, -2.77, 4.29]

Give cytotoxicity at 70.5 h for all molecules that follow.
1. Cc1cc(C(=O)N2CCC(O)(Cn3c(C)cc4ccncc43)CC2)on1
2. CCc1nc(C2CCCN2C(=O)CCc2cscn2)no1 (configuration not stated)

a:
1: -0.77; 2: -4.03

I'm hoping you can list cytotoxicity at 70.5 h for every molecule here, please.
1. CC(C)(C)C(O)CN1CCN(Cc2ccc(C#N)cc2)CC1 (configuration not stated)
2. N#Cc1ccc(OCC(O)CN2CCN(c3nccs3)CC2)cc1 (configuration not stated)
3. CC(NC(=O)CCCc1nc(C(C)(C)C)no1)c1nnc2n1CCC2 (configuration not stated)
4. O=C(c1cccnc1-c1ccc2c(c1)OCCO2)N1CCCC1
5. COc1cccc(CN2CC[C@H](NC(C)=O)[C@@H](O)CC2)c1F
6. CC(=O)c1ccc(-c2cnn(CC(=O)Nc3ccnn3C)c2)nc1
7. O=C(CC1=CCCCC1)N1CCC(Cn2cc(CCO)nn2)CC1
8. Cn1nnc2c1CCN(Cc1ccccn1)C2COCc1ccccc1 (configuration not stated)

a:
1. -6.98
2. 13.7
3. -2.92
4. -8.05
5. -1.47
6. -9.08
7. -11.5
8. 14.7

Below are 6 molecules. Give each one its cytotoxicity at 70.5 h.
1. CN1CCN(C2CCN(Cc3noc(-c4ccccc4)n3)CC2)C1=O
2. CCCNS(=O)(=O)Cc1ccc(Br)cc1
3. CCOc1ccnc(N2CCN(C(=O)c3cccnc3)CC2)n1
4. CCc1csc(C2CCCN(C(=O)c3ncccn3)C2)n1 (configuration not stated)
5. Cc1cccc(CN2CCN(c3ncnc4[nH]ccc34)CC2CCO)n1 (configuration not stated)
6. CN(CCO)C[C@@H]1CN(Cc2ccccc2-c2ccccc2)C[C@@H]1CO

a:
-3.63
-7.66
-8.35
-0.847
-3.92
-2.36

Could I get cytotoxicity at 70.5 h for every one of these entries?
1. Cc1nc(N2CCCC2)nc(C)c1NS(C)(=O)=O
2. O=C(O)C1(O)CCN(c2ccc3cccc(Cl)c3n2)CC1

a:
[0.704, -20.3]

List the reported cytotoxicity at 70.5 h of each molecule below.
1. CCc1ccc(CN2Cc3nccn3CC(Cn3cncn3)C2)o1 (configuration not stated)
2. O=C(CCn1cccn1)N1CCC(c2nnc(-c3ccsc3)o2)CC1
3. O=C(c1ccccn1)N1C[C@@H]2CC[C@H](C1)N(C(=O)CCc1ccsc1)C2

a:
1: 2.9; 2: -8.63; 3: -10.8

Give cytotoxicity at 70.5 h for each of the items listed below.
1. COCc1nc(N(C)C)ncc1C(=O)Nc1cc(C)cc(C)c1
2. Cc1ccc(N2CCN(C(=O)C(O)c3cccc(Cl)c3)CC2=O)cc1 (configuration not stated)
3. CN(C)c1ncc(-c2cncnc2)c(C2CNCCO2)n1 (configuration not stated)
4. CCc1ccc(NC(=O)C(C)N2CCN(Cc3ncc[nH]3)CC2)cc1 (configuration not stated)
5. CCC(CO)N(Cc1cccs1)C(=O)CSC (configuration not stated)
6. O=S(=O)(c1ccccc1)N1C(CN2CCOCC2)[C@]2(O)CC[C@H]1CC2 (some centres not stated)
7. Cc1ccccc1CN(CCN(C)C)C(=O)c1ccc2nccn2c1

a:
[-6.56, -5.15, -8.74, -2.82, 11.9, 16.5, 0.498]

I have 2 molecules here; please give me cytotoxicity at 70.5 h for each one.
1. CCCc1nc(CN(CC)C(=O)c2ccc(OC)c(OC)c2)no1
2. CCc1ccccc1CN1CCC(N2CCCC2=O)CC1

a:
1: 25.6; 2: -8.77
